Entry source: paper PMC10442857

Please go through the items and note down their IC50.
Biological target: GHSR (GHS-R1a) (Homo sapiens)
Construct: expressed in transfected cells; host or cells: HEK 293 cells transfected with GHS-R1a (membrane suspension)
Assay: biochemical
Type: binding
Conditions: lower limit from test at 100 µM; read-out: IC50 against GHSR
Peptide text beside a SMILES is read from it.

Task item: Hello, please tell me recorded IC50 for this one: CC(C)C[C@H](NC(=O)[C@H](Cc1cccc2ccccc12)NC(=O)[C@H](CN)NC(=O)[C@H](CO)NC(=O)CN)C(=O)N[C@@H](CO)C(=O)N1CCC[C@H]1C(=O)N[C@H](C(N)=O)[C@@H](C)O [ligand 12, H-GS-Dap-Nal-1-LSPT-NH2] (HELM PEPTIDE1{G.S.[NC[C@H](N[*:1])C(=O)[*:2]].[O=C([C@H](Cc1cccc2ccccc12)N[*:1])[*:2]].L.S.P.T.[am]}$$$$V2.0)
Reply: ≥ 100 µM

Task item: Hello, please tell me recorded IC50 for this one: CC(C)C[C@H](NC(=O)[C@H](Cc1ccccc1)NC(=O)[C@H](CN)NC(=O)[C@H](CO)NC(=O)C(C)(C)N)C(=O)N[C@@H](CO)C(=O)N1CCC[C@H]1C(=O)N[C@@H](Cc1ccc(O)cc1)C(N)=O [ligand 4, H-Aib-S-Dap-FLSPY-NH2] (HELM PEPTIDE1{[Aib].S.[NC[C@H](N[*:1])C(=O)[*:2]].F.L.S.P.Y.[am]}$$$$V2.0)
Reply: ≥ 100 µM

====

Biological target: GHSR (GHS-R1a) (Homo sapiens)
Construct: expressed in transfected cells; host or cells: HEK 293 cells transfected with GHS-R1a (membrane suspension)
Test: biochemical
Format: binding
Settings: lower limit from test at 100 µM; read-out: IC50 against GHSR
Peptide text beside a SMILES is read from it.
Please go through the items and note down their IC50.

Task item: Hello, please tell me recorded IC50 for this one: CC(C)C[C@H](NC(=O)[C@H](Cc1ccccc1)NC(=O)[C@H](CN)NC(=O)[C@H](CO)NC(=O)C1CCNCC1)C(=O)N[C@@H](CO)C(=O)N1CCC[C@H]1C(=O)N[C@@H](Cc1ccc(O)cc1)C(N)=O [ligand 5, H-Inp-S-Dap-FLSPY-NH2] (HELM PEPTIDE1{[O=C(C1CCNCC1)[*:2]].S.[NC[C@H](N[*:1])C(=O)[*:2]].F.L.S.P.Y.[am]}$$$$V2.0)
Reply: ≥ 100 µM

Task item: Hello, please tell me recorded IC50 for this one: CC(C)C[C@H](NC(=O)[C@H](Cc1ccccc1)NC(=O)[C@H](CN)NC(=O)[C@H](CO)NC(=O)CN)C(=O)N[C@@H](CO)C(=O)N1CCC[C@H]1C(=O)N[C@@H](Cc1ccc(O)cc1)C(N)=O [ligand 1, H-GS-Dap-FLSPY-NH2] (HELM PEPTIDE1{G.S.[NC[C@H](N[*:1])C(=O)[*:2]].F.L.S.P.Y.[am]}$$$$V2.0)
Reply: ≥ 100 µM

Task item: Hello, please tell me recorded IC50 for this one: CC(C)C[C@H](NC(=O)[C@H](Cc1ccc2ccccc2c1)NC(=O)[C@H](CN)NC(=O)[C@H](CO)NC(=O)CN)C(=O)N[C@@H](CO)C(=O)N1CCC[C@H]1C(=O)N[C@H](C(N)=O)[C@@H](C)O [ligand 13, H-GS-Dap-Nal-2-LSPT-NH2] (HELM PEPTIDE1{G.S.[NC[C@H](N[*:1])C(=O)[*:2]].[O=C([C@H](Cc1ccc2ccccc2c1)N[*:1])[*:2]].L.S.P.T.[am]}$$$$V2.0)
Reply: ≥ 100 µM
